Recorded IC50 values for a group of compounds are listed next.
Experimental Target: Mu-type opioid receptor (Cavia porcellus, UniProt P97266)
Sequence (P97266 whole entry): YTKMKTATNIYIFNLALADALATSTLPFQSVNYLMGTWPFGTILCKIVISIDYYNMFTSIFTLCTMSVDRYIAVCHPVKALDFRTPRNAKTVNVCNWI
Assay Summary: Inhibition of electrically evoked contractions in Guinea pig ileum
Non-standard residues stand in square brackets, D forms with d. Residues, ends and D or L forms follow the SMILES beside them. Tic = O=C(O)[C@@H]1Cc2ccccc2CN1
Could you give me the number in µM? Just the number is fine.

Compound: CC(C)[C@H](NC(=O)[C@H](CC(=O)O)NC(=O)[C@@H]1Cc2ccccc2CN1C(=O)[C@@H](C)NC(=O)[C@@H](N)Cc1ccc(O)cc1)C(=O)N[C@H](C(=O)NCC(N)=O)C(C)C (H-Y[dA][Tic]DVVG-NH2)
IC50, µM: 14.5

Q: Requested read-out: IC50. Entry: CC(C)[C@H](NC(=O)[C@H](CC(=O)O)NC(=O)C1(NC(=O)[C@@H](C)NC(=O)[C@@H](N)Cc2ccc(O)cc2)CCc2ccccc2C1)C(=O)N[C@H](C(=O)NCC(N)=O)C(C)C (stereo in doubt; 3)
A: 1.38

Q: Item CC(C)[C@H](NC(=O)[C@H](CC(=O)O)NC(=O)[C@H](Cc1ccccc1)NC(=O)[C@@H](C)NC(=O)[C@@H](N)Cc1ccc(O)cc1)C(=O)N[C@H](C(=O)NCC(N)=O)C(C)C has what recorded IC50?
A: 0.854

Q: Need IC50 of CSCC[C@H](NC(=O)[C@H](CC(C)C)NC(=O)[C@H](Cc1cnc[nH]1)NC(=O)[C@H](Cc1ccccc1)NC(=O)[C@@H](CCSC)NC(=O)[C@@H](N)Cc1ccc(O)cc1)C(=O)N[C@@H](CC(=O)O)C(N)=O (stereo in doubt; 12) [DELTORPHIN A] , thanks.
A: 0.281

* * *

Experimental Target: UniProt P33535
Sequence (P33535 whole entry): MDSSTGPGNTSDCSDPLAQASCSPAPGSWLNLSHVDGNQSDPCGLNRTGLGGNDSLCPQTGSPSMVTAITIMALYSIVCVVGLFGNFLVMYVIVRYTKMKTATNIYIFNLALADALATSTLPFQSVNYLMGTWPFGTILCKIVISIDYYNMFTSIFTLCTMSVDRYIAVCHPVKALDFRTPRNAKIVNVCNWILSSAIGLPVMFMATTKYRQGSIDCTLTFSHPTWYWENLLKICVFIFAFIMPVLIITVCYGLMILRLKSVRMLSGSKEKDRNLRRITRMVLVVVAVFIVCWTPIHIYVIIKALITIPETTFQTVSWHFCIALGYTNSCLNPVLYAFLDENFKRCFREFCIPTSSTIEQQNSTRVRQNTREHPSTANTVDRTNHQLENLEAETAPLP
Assay Summary: Inhibition of [3H]- ]DAMGO binding to mu receptor from rat brain membrane
Positions of bridges follow the written chain, without caps; N, C: chain ends. Residues, ends and D or L forms follow the SMILES beside them.
Measure Name: Ki (nM)
Enter your answer as a number in nM; do not include the unit.

Example cases with answers are listed next.
Molecule: CCCC[C@H](NC(=O)[C@H](CC(C)C)NC(=O)[C@H](Cc1cnc[nH]1)NC(=O)[C@H](Cc1ccccc1)NC(=O)[C@@H](CCCC)NC(=O)[C@@H](N)Cc1ccc(O)cc1)C(=O)N[C@@H](CC(=O)O)C(N)=O
Measure Name: Ki
Quantitative Result: 117

Molecule: CC(C)[C@@H]1NC(=O)[C@@H](NC(=O)[C@H](Cc2ccccc2)NC(=O)CNC(=O)[C@@H](N)Cc2ccc(O)cc2)CCC(=O)NCCCC[C@@H](C(N)=O)NC(=O)[C@H](C(C)C)NC1=O (H-YGFEVVK-NH2; lactam 4-7)
Measure Name: Ki
Quantitative Result: 955

Q: Endpoint output: Ki of CC(C)[C@@H]1NC(=O)[C@@H](NC(=O)[C@H](Cc2ccccc2)NC(=O)[C@@H](C)NC(=O)[C@@H](N)Cc2ccc(O)cc2)CC(=O)NCCC[C@@H](C(N)=O)NC(=O)[C@H](C(C)C)NC1=O . Value?
A: 338
